These entries and their values trace back to patent US20120277209A1.

biological target: PDE10 (UniProt Q9Y233); test: PDE10 enzyme inhibition, IMAP TR-FRET assay (MPDE10A7 Enzyme Activity and Inhibition); assay type: biochemical; conditions: IC50 class against PDE10; read-out: IC50
pIC50: −log10 of the molar value.
endpoint: pIC50

Ask: Give pIC50 (PDE10 (UniProt Q9Y233)) of the following molecule: CC(=O)N1CCN(c2nccnc2Oc2ccc(Nc3nc4ccccc4s3)cc2)CC1 [Example 71]
Reply: 7.00 to 7.60

Ask: Please answer likewise for c1ccc2sc(Nc3ccc(Oc4nccnc4-c4cncnc4)cc3)nc2c1 [Example 143]
Reply: > 7.60

Ask: // repeat for O=C1CCCC(c2nccnc2Oc2ccc(C(=O)c3nc4ccccc4[nH]3)cc2)C1 (racemic) [Example 210] and report
Reply: > 7.60

Ask: Same thing, different molecule: CC(O)C(=O)N1CCC(c2nccnc2Oc2ccc(Nc3nc4ccccc4s3)cc2)CC1 (centres unmarked) [Example 239]
Reply: > 7.60

Ask: Consider next the molecule N#CC1CCN(c2nccnc2Oc2ccc(Nc3nc4ccccc4s3)cc2)CC1 [Example 70] in the same way.
Reply: > 7.60

Ask: Could you do the same for O=C(c1ccc(Oc2nccnc2OCC2CCOC2)cc1)c1nc2ccccc2[nH]1 (centres unmarked) [Example 171] , please?
Reply: 6.60 to 7.00

Ask: Likewise for N#Cc1cccc(-c2nccnc2Oc2ccc(C(=O)c3nc4ccccc4[nH]3)cc2)c1 [Example 125] ?
Reply: > 7.60

Ask: Similarly, O=C1C=C(c2nccnc2Oc2ccc(Nc3nc4ccccc4s3)c(F)c2)CCC1 [Example 136] ?
Reply: > 7.60

###

Would you kindly list IC50 for each of these compounds?
target: PDE10 (UniProt Q9Y233); assay: PDE10 enzyme inhibition, IMAP TR-FRET assay (MPDE10A7 Enzyme Activity and Inhibition); type: biochemical; conditions: PDE10 enzyme inhibition; average IC50 data for each compound; read-out: Average IC50
Kindly provide the numeric value in nM only, without the unit symbol.

Ask: Form field: reported IC50 of N#CC1(c2nccnc2Oc2ccc(C(=O)c3nc4ccccc4[nH]3)cc2)CCOCC1 [drawing 868]
Reply: 2.5

Ask: One more compound: O=C(c1ccc(Oc2nccnc2C2(F)CCOCC2)cc1)c1nc2ccccc2[nH]1 [drawing 924]
Reply: 1.83

Ask: Here is the next compound: COCCOc1nccnc1Oc1ccc(C(=O)c2nc3ccccc3[nH]2)cc1 [drawing 848]
Reply: 29.1

Ask: Now the same for COC(=O)c1ccc(-c2nccnc2Oc2ccc(C(=O)c3nc4ccccc4[nH]3)cc2)cc1 [drawing 758]
Reply: 33

Ask: Query N#CC1CN(c2nccnc2Oc2ccc(Nc3nc4ccccc4s3)cc2)C1 [drawing 776] next
Reply: 6.75

Ask: Param item: O=C(c1ccc(Oc2nccnc2C2CCOCC2)cc1)c1nc2ccc(F)cc2[nH]1 [drawing 987]
Reply: 0.593

Ask: Same lookup for FCCN1CCC(c2nccnc2Oc2ccc(Nc3nc4ccccc4s3)cc2)CC1 [drawing 962] , please.
Reply: 3.24

Ask: Can you check COC(=O)C1(c2nccnc2Oc2ccc(Nc3nc4ccccc4s3)cc2)CCOCC1 [drawing 871] next?
Reply: 6.28

Ask: Now this one: O=C1CCC[C@@H](c2nccnc2Oc2ccc(Nc3nc4ccccc4s3)cc2)C1 [drawing 1002]
Reply: 1.12

Ask: Next entry: CN(C)CC(=O)N1CCC(c2nccnc2Oc2ccc(Nc3nc4ccccc4s3)cc2)CC1 [drawing 996]
Reply: 0.705

Ask: Ok, now Fc1ccc2sc(Nc3ccc(Oc4nccnc4C4CCOCC4)cc3)nc2c1 [drawing 881]
Reply: 11.8

Ask: Now the compound O=C(c1ccc(Oc2nccnc2OCCc2ccccn2)cc1)c1nc2ccccc2[nH]1 [drawing 860]
Reply: 8.05

Ask: Repeat for the following compound: CCOC(=O)[C@@H]1CCCN(c2nccnc2Oc2ccc(C(=O)c3nc4ccccc4[nH]3)cc2)C1 (stereo in doubt)
Reply: 0.773

Ask: Entry to check: COc1ncccc1-c1nccnc1Oc1ccc(C(=O)c2nc3ccccc3n2CCF)cc1 [drawing 994]
Reply: 5.83

Ask: // same read-out, input: O=C(c1ccc(Oc2nccnc2N2CCC(CO)CC2)cc1)c1nc2ccccc2[nH]1
Reply: 0.32

Ask: // same read-out, input: c1ccc2sc(Nc3ccc(Oc4nccnc4-c4ccc(N5CCOCC5)cc4)cc3)nc2c1 [drawing 763]
Reply: 1070

Ask: Can you check Cc1nnc2n1CCN(c1nccnc1Oc1ccc(C(=O)c3nc4ccccc4[nH]3)cc1)C2 next?
Reply: 6.03

###

target: UniProt:Q9Y233; assay: PDE10 enzyme inhibition, IMAP TR-FRET assay (MPDE10A7 Enzyme Activity and Inhibition); format: biochemical; conditions: PDE10 enzyme inhibition; average IC50 data for each compound; read-out: Average IC50
I'd be grateful if you could share measured IC50 for these entries.
# value in µM; strip the unit string

Ask: GET /values?readout=IC50&item= COCC1CCCN(c2nccnc2Oc2ccc(Nc3nc4ccccc4s3)cc2)C1 (centres unmarked) [drawing 736]
Reply: 0.0185

Ask: Also, Clc1ccc(-c2nccnc2Oc2ccc(Nc3nc4ccccc4s3)cc2)cn1 [drawing 794] please.
Reply: 0.0146

Ask: Moving on to the next compound: c1ccc2sc(Nc3ccc(Oc4nccnc4-c4cccc5ncccc45)cc3)nc2c1 [drawing 821]
Reply: 0.0144

Ask: Now the compound CN(C)CC(=O)N1CCC(c2nccnc2Oc2ccc(C(=O)c3nc4ccccc4[nH]3)cc2)CC1 [drawing 995]
Reply: 0.00143

Ask: Same question for Cn1c(C(=O)c2ccc(Oc3nccnc3Cl)cc2)nc2ccccc21 please.
Reply: 0.187

###

target: PDE10 (UniProt Q9Y233); experiment: PDE10 enzyme inhibition, IMAP TR-FRET assay (MPDE10A7 Enzyme Activity and Inhibition); format: biochemical; conditions: IC50 class against PDE10; read-out: IC50
Kindly state IC50 for each of the entries shown.

Ask: Checklist item: IC50 tested on PDE10 (UniProt Q9Y233), entry O=C(c1ccc(Oc2nccnc2-c2cccc3ncccc23)cc1)c1nc2ccccc2[nH]1 [Example 130] , value?
Reply: 0.025 to 0.1 µM

Ask: CC(=O)N1CCC(c2nccnc2Oc2ccc(Nc3nc4ccccc4s3)cc2)CC1 [Example 225] , same question.
Reply: < 0.025 µM

Ask: What about OC[C@@H]1CCCN1c1nccnc1Oc1ccc(Nc2nc3ccccc3s2)cc1 [Example 76] ?
Reply: < 0.025 µM

Ask: Another compound to look at: CC(=O)N1CCC(c2nccnc2Oc2ccc(C(=O)c3nc4ccccc4[nH]3)cc2)C1 (stereo not shown) [Example 240]
Reply: < 0.025 µM

###

Provide the reported pIC50 of each item.
target: PDE10 (UniProt Q9Y233); test: PDE10 enzyme inhibition, IMAP TR-FRET assay (MPDE10A7 Enzyme Activity and Inhibition); assay type: biochemical; settings: IC50 class against PDE10; read-out: IC50
pIC50: −log10 of the molar value.

Ask: For the molecule shown here, CC(=O)N1CCC(c2nccnc2Oc2ccc(Nc3nc4ccccc4s3)cc2)C1 (centres unmarked) [Example 241] , give the reported pIC50.
Reply: > 7.60

Ask: Now the same for c1ccc2sc(Nc3ccc(Oc4nccnc4C4CCCC4)cc3)nc2c1 [compound 223]
Reply: > 7.60

Ask: Same thing, different molecule: COc1ncccc1-c1nccnc1Oc1ccc(C(=O)c2nc3cc(F)ccc3[nH]2)cc1 [Example 117]
Reply: 7.00 to 7.60

Ask: Same thing, different molecule: CC(F)C(=O)N1CCC(c2nccnc2Oc2ccc(C(=O)c3nc4ccccc4[nH]3)cc2)CC1 (centres unmarked) [Example 234]
Reply: > 7.60

Ask: Also, COc1nc2ccccc2cc1-c1nccnc1Oc1ccc(C(=O)c2nc3ccccc3[nH]2)cc1 [Example 115] please.
Reply: > 7.60

Ask: For c1ccc2sc(Nc3ccc(Oc4nccnc4C4CCCOC4)cc3)nc2c1 (centres unmarked) [Example 193] then?
Reply: > 7.60

Ask: Query COc1ncccc1-c1nccnc1Oc1ccc(C(O)c2nc3ccccc3[nH]2)cc1 (centres unmarked) [Example 229] next
Reply: > 7.60

Ask: Same for O=C(c1ccc(Oc2nccnc2OCCN2CCCC2)cc1)c1nc2ccccc2[nH]1 [Example 173]
Reply: 6.60 to 7.00

###

Biological target: UniProt:Q9Y233
Test: PDE10 enzyme inhibition, IMAP TR-FRET assay (MPDE10A7 Enzyme Activity and Inhibition)
Format: biochemical
Details: PDE10 enzyme inhibition; average IC50 data for each compound; read-out: Average IC50
Protocol: All compounds were divided in five classes based on their IC50 values against PDE10. The range of the IC50 in each class is as follows: An IMAP TR-FRET assay was used to analyze the enzyme activity (Molecular Devices Corp., Sunnyvale Calif.). […] The plates were read on an Envision (Perkin Elmer, Waltham, Mass.) for time resolved fluorescence resonance energy transfer. The data were analyzed with GraphPad Prism (La Jolla, Calif.). […]
Consider the following compounds; for each one, report its pIC50.
Recall that pIC50 is obtained by taking minus log10 of the concentration measured in molar.

Ask: Please provide the recorded pIC50 for Cc1cc(-c2nccnc2Oc2ccc(C(=O)c3nc4ccccc4[nH]3)cc2)ccn1 [drawing 726] , tested on UniProt:Q9Y233.
Reply: 8.25

Ask: Field entry: O=C(c1ccc(Oc2nccnc2C(=O)NCCO)cc1)c1nc2ccccc2[nH]1 [drawing 817]
Reply: 7.18

Ask: Same question, O=C(c1ccc(Oc2nccnc2N2CCC(CCO)CC2)cc1)c1nc2ccccc2[nH]1 this time
Reply: 8.40

Ask: Another compound: CC1(O)CCN(c2nccnc2Oc2ccc(Nc3nc4ccccc4s3)cc2)CC1 [drawing 742]
Reply: 8.09

Ask: Query O=C(c1ccc(Oc2nccnc2OCC2CC2)cc1)c1nc2ccccc2[nH]1 [drawing 846] next
Reply: 6.79
